Molecular target: T1, murine HVEM (murine, UniProt Q80WM9 39-206, limits assumed); also: test concentration or dose not given here
T1 construct: also called Mouse
T1 sequence (looked up): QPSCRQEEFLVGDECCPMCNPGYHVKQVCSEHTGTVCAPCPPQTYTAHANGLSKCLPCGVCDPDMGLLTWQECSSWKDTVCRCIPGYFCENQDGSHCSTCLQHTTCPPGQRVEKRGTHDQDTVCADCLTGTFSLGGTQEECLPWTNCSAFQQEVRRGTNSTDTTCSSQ
Test: ELISA
// ELISA signal lookup, one value per entry

binder | ELISA signal
Ab_007 (H5S14-6A6A) (antibody, V domains shown, also called Ab_7) VH: EVKLVESGGGLVQPGGSLRLSCATSGFTFTDYYMSWVRQTPGKALEWLGFIRNQANAYTTEYSVSVKGRFTISRDNSQSILYLQMNTLRVEDSATYYCARVPDYWGQGTTLTVSS VL: DIQMTQSPASQSASLGESVTITCLASQTIGTWLAWYQQKPGKSPQLLIYAATSLADGVPSRFSGSGSGTKFSFKISSLQAEDFVSYYCQQLHSTPYTFGGGTKLEIK | 0.042
Ab_081 (H5S20-44A32A) (antibody, V domains shown, also called Ab_81) VH: EVKLVESGGGLVQPGGSLKLSCAASGFTFSSYTMSWVRQTPEKRLEWVAYISNGGGSTYYPDTVKGRFTISRDNAKNTLYLQMSSLKSEDTAMYYCARHRGYGSSYNYAMDYWGQGTSVTVSS VL: DIVMTQSQKFMSTSVGDRVSVTCKASQNVGTNVAWYQQKPGQSPKALIYSASYRYSGVPDRFTGSGSGTDFTLTISNVQSEDLAEYFCQQYNSYPFTFGSGTKLEIK | 0.048
Ab_042 (H5S15-28A23A) (antibody, V domains shown, also called Ab_42) VH: QVQLQQSGAELVKPGASVKMSCKAFGYTFTTYPIEWMKQNHGKSLEWIGNFHPYNDDTKYNEKFKGKAKLTVEKSSSTVYLELSRLTSDDSAVYYCARGGFAYWGQGTLVTVSA VL: DVVMTQTPLSLPVSLGDQASISCRSSQSLVHSNGNTYLHWYLQKPGQSPKLLIYKVSNRFSGVPDRFSGSGSGTDFTLKISRVEAEDLGVYFCSQSTHVPFTFGSGTKLEIK | 0.046
